System: S. aureus strain 4-133
setup conditions: broth microdilution, triplicate; isolate 4-133, resistance PEN-CEF-CTX-FOX-CIP-CHL-KAN-GEN
Non-standard residues stand in square brackets, D forms with d. Residues, ends and D or L forms follow the SMILES beside them. *: point of attachment. Tetradecanoyl(3R-OH) = CCCCCCCCCCC[C@@H](O)CC(=O)*; Tetradecanoyl(3S-OH) = CCCCCCCCCCC[C@H](O)CC(=O)*
endpoint name: MIC

# count of solved cases: 2
>  <compound>
CCCCCCCCCCC[C@@H](O)CC(=O)N[C@@H](Cc1c[nH]c2ccccc12)C(=O)N[C@@H](CO)C(=O)N[C@H](Cc1c[nH]c2ccccc12)C(=O)N[C@@H](Cc1ccccc1)C(=O)N[C@@H](C(=O)N[C@@H](C)C(=O)N[C@H](C(=O)O)C(C)C)[C@H](C)O [13R] ({Tetradecanoyl(3R-OH)}-WS[dW]F[dT]AV-OH)

>  <endpoint name>
MIC

>  <readout value>
>256 µg/mL

$$$$
>  <compound>
CCCCCCCCCCC[C@@H](O)CC(=O)N[C@@H](Cc1c[nH]c2ccccc12)C(=O)N[C@@H](CO)C(=O)N[C@H](Cc1c[nH]c2ccccc12)C(=O)N[C@@H](Cc1ccccc1)C(=O)N[C@@H](C(=O)N[C@H](C(=O)N[C@H](C(=O)O)C(C)C)C(C)C)[C@H](C)O [12R] ({Tetradecanoyl(3R-OH)}-WS[dW]F[dT]VV-OH)

>  <endpoint name>
MIC

>  <readout value>
256 µg/mL

$$$$

Give measured MIC for every item shown.
1. CCCCCCCCCCC[C@H](O)CC(=O)N[C@@H](Cc1c[nH]c2ccccc12)C(=O)N[C@@H](CO)C(=O)N[C@H](Cc1c[nH]c2ccccc12)C(=O)N[C@@H](Cc1ccccc1)C(=O)N[C@@H](C(=O)N[C@H](C(=O)N[C@H](C(=O)O)C(C)C)C(C)C)[C@H](C)O [12S] ({Tetradecanoyl(3S-OH)}-WS[dW]F[dT]VV-OH)
2. CCCCCCCCCCC[C@H](O)CC(=O)N[C@@H](Cc1c[nH]c2ccccc12)C(=O)N[C@@H](CO)C(=O)N[C@H](Cc1c[nH]c2ccccc12)C(=O)N[C@@H](Cc1ccccc1)C(=O)N[C@@H](C(=O)N[C@@H](C)C(=O)N[C@H](C(=O)O)C(C)C)[C@H](C)O [13S] ({Tetradecanoyl(3S-OH)}-WS[dW]F[dT]AV-OH)

Response line:
1. 256 µg/mL
2. >256 µg/mL
